I'd be grateful if you could share measured Alpha for these entries.
- target-desc: Human plasma kallikrein (Homo sapiens (Human))
- Sequence (P03952 391-638): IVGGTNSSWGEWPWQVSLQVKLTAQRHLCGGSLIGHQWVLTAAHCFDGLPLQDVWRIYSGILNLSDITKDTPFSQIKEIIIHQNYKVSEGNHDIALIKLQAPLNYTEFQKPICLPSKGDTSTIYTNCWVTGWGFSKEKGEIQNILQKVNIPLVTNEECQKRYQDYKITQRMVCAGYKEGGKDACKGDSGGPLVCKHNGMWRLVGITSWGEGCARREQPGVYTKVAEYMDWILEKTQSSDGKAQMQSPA
- Sequence (P03952 20-390): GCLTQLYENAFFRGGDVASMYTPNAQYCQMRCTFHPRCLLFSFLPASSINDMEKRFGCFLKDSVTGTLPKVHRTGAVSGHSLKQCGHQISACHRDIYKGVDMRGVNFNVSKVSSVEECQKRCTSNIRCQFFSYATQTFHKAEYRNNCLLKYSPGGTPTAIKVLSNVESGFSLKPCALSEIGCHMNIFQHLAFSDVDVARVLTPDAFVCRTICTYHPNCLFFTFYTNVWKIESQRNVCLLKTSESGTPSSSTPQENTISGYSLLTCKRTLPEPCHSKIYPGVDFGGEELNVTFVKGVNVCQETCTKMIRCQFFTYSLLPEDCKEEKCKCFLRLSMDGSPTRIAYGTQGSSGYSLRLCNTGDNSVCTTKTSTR
- method-description: Determination of the Ki for plasma kallikrein (mixed-model inhibition)
- Format: biochemical
- protocol-conditions: parameter of the mixed-model equation indicating mechanism of inhibition
Simply state the number, no unit and no words.

Q: What value of measured Alpha is listed for COCc1nn(Cc2cnc(N3CCC(F)(F)C3)nc2)cc1C(=O)NCc1c(-n2cnnn2)ccc(OC)c1F ?
A: 2.78

Q: Could you share which Alpha value was measured for COc1cccc(CNC(=O)c2cn(Cc3ccc(Cn4ccccc4=O)cc3)nc2N)c1F [Reference Example B, reference compound] ?
A: 48

Q: Find the recorded Alpha belonging to COc1ccc(-n2cnnn2)c(CNC(=O)c2cn(Cc3ccc(N4CCCC4)nc3)nc2C(F)(F)F)c1F and report it.
A: 2.24

Q: // Alpha lookup, key: COCc1nn(Cc2ccc(Cn3cc(C)cn3)cc2)cc1C(=O)NCc1c(-n2cnnn2)ccc(OC)c1F
A: 1.6

* * *

For each record, write down the corresponding fraction unbound at 5 h, 5 μM.
- method-description: Plasma protein binding (PPB), rapid equilibrium dialysis, human plasma
- Assay type: in vitro ADME
- protocol-conditions: 5 μM test compound, dialysis 5 hrs at 37° C.
Keep it simple and answer with nothing but the number.

Q: Suppose we examine the compound COCc1nn(Cc2cnc(N3CCCC3)nc2)cc1C(=O)NCc1cc(OC)ccc1-n1cnnn1 [Example 80] ; what fraction unbound at 5 h, 5 μM value has been reported?
A: 0.08

Q: So what does the record say about fraction unbound at 5 h, 5 μM for COCc1nn(Cc2ccc(Cn3ccccc3=O)cc2)cc1C(=O)NCc1c(F)cccc1-n1cnnn1 [Reference Example H, reference compound] ?
A: 0.16

Q: Would you mind telling me what fraction unbound at 5 h, 5 μM value was observed for COc1ccnc(CNC(=O)c2cn(Cc3ccc(Cn4ccccc4=O)cc3)nc2C(F)(F)F)c1F [Example 6] ?
A: 0.13

Q: Data request, read-out fraction unbound at 5 h, 5 μM, for COCc1nn(Cc2ccc(Cn3ccccc3=O)cc2)cc1C(=O)NCc1c(-n2cnnn2)ccc(OC)c1F [Example 39]
A: 0.22

Q: Recorded fraction unbound at 5 h, 5 μM for COCc1nn(Cc2ccc(Cn3cc(F)ccc3=O)cc2)cc1C(=O)NCc1c(C#N)ccc(OC)c1F [Example 53] , please?
A: 0.1

Q: Please look up its fraction unbound at 5 h, 5 μM: COCc1nn(Cc2ccc(Cn3ccccc3=O)cc2)cc1C(=O)NCc1cc(OC)ccc1-n1cnnn1 [Example 40]
A: 0.24

Q: For the compound shown here, COCc1nn(Cc2ccc(Cn3ccccc3=O)cc2)cc1C(=O)NCc1cc(Cl)ccc1-n1cnnn1 [Example 72] , give the reported fraction unbound at 5 h, 5 μM.
A: 0.1

Q: Fill in: fraction unbound at 5 h, 5 μM of COCc1nn(Cc2ccc(Cn3cc(C)cn3)cc2)cc1C(=O)NCc1c(-n2cnnn2)ccc(OC)c1F [Example 60] is ___
A: 0.09

Q: I have this compound here, COc1ccnc(CNC(=O)c2cn(Cc3ccc(Cn4ccccc4=O)cc3)nc2N)c1F [Example 5] , and I need its recorded fraction unbound at 5 h, 5 μM.
A: 0.23

Q: Sample COc1ccc(F)c(CNC(=O)c2cn(Cc3ccc(Cn4ccccc4=O)cc3)nc2N)c1F [Example 35] — what was its fraction unbound at 5 h, 5 μM?
A: 0.04

Q: Can you look up the measured fraction unbound at 5 h, 5 μM of COc1ccc(C#N)c(CNC(=O)c2cn(Cc3ccc(Cn4ccccc4=O)cc3)nc2N)c1F [Example 43] for me?
A: 0.12

Q: Could you share which fraction unbound at 5 h, 5 μM value was measured for COCc1nn(Cc2ccc(Cn3cc(F)ccc3=O)cc2)cc1C(=O)NCc1nccc(OC)c1F [Example 30] ?
A: 0.18

Q: Recorded fraction unbound at 5 h, 5 μM for COCc1nn(Cc2cnc(N3CCCC3)nc2)cc1C(=O)NCc1c(-n2cnnn2)ccc(OC)c1F [Example 79] , please?
A: 0.09

Q: Fill in the blank: the reported fraction unbound at 5 h, 5 μM of COCc1nn(Cc2ccc(Cn3cc(C)cn3)cc2)cc1C(=O)NCc1cc(OC)ccc1-n1cnnn1 [Example 61] is ____.
A: 0.08

Q: Recorded fraction unbound at 5 h, 5 μM of COCc1nn(Cc2cnc(N3CCC(F)(F)C3)nc2)cc1C(=O)NCc1c(-n2cnnn2)ccc(OC)c1F [Example 86] , please.
A: 0.1

The measured values listed here are drawn from patent US11180484B2.
